protocol-summary: blockers of ER-stress CHOP reporter expression – cell-based, unfolded protein response, luciferase reporter, primary screen (AID 2732);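 note: 0% = tunicamycin plus vehicle and 100% = wells without tunicamycin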
setup-conditions: CHO-K1 CHOP-promoter luciferase, tunicamycin-induced, 15-18 h; at 10 µM
About 8,200 (3.7%) of roughly 220,000 compounds were called active.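 Rule for the calls: active = compounds that reduced the stress-induced luciferase reporter signal by more than about 70% of percent inhibition (limit read from the data); inactive = the rest.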 This excerpt belongs to a sample that is enriched for actives.
Classes to choose from: 1 (yes) (active), 0 (no) (inactive)

{"compound": "NC1=NC[C@@H](Cc2ccc(O)cc2)N1CC1CCCCC1", "assigned-label": "0 (no)"}
{"compound": "CC(Nc1nc(N2CCOCC2)nc2ccccc12)c1ccccc1 (stereo unspecified)", "assigned-label": "0 (no)"}
{"compound": "COCCn1c(SCC(=O)c2[nH]c(C)c(C(C)=O)c2C)nc2ccccc2c1=O", "assigned-label": "0 (no)"}

Prompt: What classification did COC(=O)c1sc(NC(=S)NC(=O)c2ccc(C)cc2)nc1C end up with in this test?
Completion: 0 (no)

Prompt: What classification did COc1ccc(N=C(C)c2sc3ccccc3c2O)cc1 end up with in this test?
Completion: 0 (no)

Prompt: What classification did COc1ccc(S(=O)(=O)N(CC(=O)N/N=C/c2ccccc2C(=O)O)c2ccccc2OC)cc1 end up with in this test?
Completion: 0 (no)

----------
protocol-summary: blockers of ER-stress CHOP reporter expression – cell-based, unfolded protein response, luciferase reporter, primary screen (AID 2732);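 note: 0% = tunicamycin plus vehicle and 100% = wells without tunicamycin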
setup-conditions: CHO-K1 CHOP-promoter luciferase, tunicamycin-induced, 15-18 h; at 10 µM
Screen size: about 220,000 compounds; about 8,200 (3.7%) were called active.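 Rule for the calls: active = compounds that reduced the stress-induced luciferase reporter signal by more than about 70% of percent inhibition (limit read from the data); inactive = the rest.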 What follows is part of a selection rich in actives, with near analogues and random picks from the rest.
Classes to choose from: 1.0 for active, 0.0 for inactive

{"compound": "COc1ccc(NC(=S)Nc2ccccc2Cl)cn1", "assigned-label": 0.0}
{"compound": "Cc1ccc(C(=O)Nc2nc(N)n(-c3ccccc3)n2)cc1", "assigned-label": 0.0}
{"compound": "CCCc1ccc(OCc2ccc(C(=O)N/N=C/c3cccc([N+](=O)[O-])c3)o2)c(OC)c1", "assigned-label": 1.0}
{"compound": "CC(=O)N1N=C(c2ccncc2)OC1(Cc1ccccc1)Cc1ccccc1", "assigned-label": 0.0}
{"compound": "Cn1c(=O)oc2cc(S(=O)(=O)N3CCC(C(=O)Nc4ccc(OC(F)(F)F)cc4)CC3)ccc21", "assigned-label": 0.0}
{"compound": "CCc1ccc(-c2nn(-c3ccccc3)cc2CSC(=N)N)cc1", "assigned-label": 1.0}
{"compound": "CCOc1c(Cl)cc(/C=N/O)cc1OC", "assigned-label": 0.0}
{"compound": "N#C/C(=C/c1ccc(-c2ccccc2[N+](=O)[O-])o1)C(=O)NCCN1CCCCC1", "assigned-label": 0.0}

Prompt: What classification did NC(=O)C1(N2CCCCC2)CCN(C(=S)Nc2ccc(Cl)cc2)CC1 end up with in this test?
Completion: 0.0

Prompt: What classification did COCc1cc(=O)[nH]c(SC)n1 end up with in this test?
Completion: 0.0

Prompt: What classification did CCn1c(SCc2ccc(C)cc2)nnc1-c1nn(-c2ccccc2)ccc1=O end up with in this test?
Completion: 0.0

Prompt: What classification did COc1cc(/C=N/O)ccc1OCc1ccc([N+](=O)[O-])cc1 end up with in this test?
Completion: 0.0

Prompt: What classification did Cc1ccc2nc(NC(=O)C3CCN(S(=O)(=O)c4ccc5c(c4)oc(=O)n5C)CC3)sc2c1 end up with in this test?
Completion: 1.0

Prompt: What classification did O=C(NCCc1ccccn1)c1cccnc1Oc1ccc(Cl)cc1 end up with in this test?
Completion: 0.0

Prompt: What classification did CC(C)CCNC(=O)C1CCC(CNc2c(N3CCC(C)CC3)c(=O)c2=O)CC1 (centres undefined) end up with in this test?
Completion: 0.0

Prompt: What classification did Cc1cc(C)c2cc(CN(Cc3nnnn3Cc3ccc(F)cc3)C3CCCC3)c(=O)[nH]c2c1 end up with in this test?
Completion: 0.0
